Property: inhibition; scope: individual compounds
- TARGET_SYSTEM: Hepatocyte growth factor receptor (Homo sapiens) (UniProt P08581)
- Sequence (P08581 whole entry): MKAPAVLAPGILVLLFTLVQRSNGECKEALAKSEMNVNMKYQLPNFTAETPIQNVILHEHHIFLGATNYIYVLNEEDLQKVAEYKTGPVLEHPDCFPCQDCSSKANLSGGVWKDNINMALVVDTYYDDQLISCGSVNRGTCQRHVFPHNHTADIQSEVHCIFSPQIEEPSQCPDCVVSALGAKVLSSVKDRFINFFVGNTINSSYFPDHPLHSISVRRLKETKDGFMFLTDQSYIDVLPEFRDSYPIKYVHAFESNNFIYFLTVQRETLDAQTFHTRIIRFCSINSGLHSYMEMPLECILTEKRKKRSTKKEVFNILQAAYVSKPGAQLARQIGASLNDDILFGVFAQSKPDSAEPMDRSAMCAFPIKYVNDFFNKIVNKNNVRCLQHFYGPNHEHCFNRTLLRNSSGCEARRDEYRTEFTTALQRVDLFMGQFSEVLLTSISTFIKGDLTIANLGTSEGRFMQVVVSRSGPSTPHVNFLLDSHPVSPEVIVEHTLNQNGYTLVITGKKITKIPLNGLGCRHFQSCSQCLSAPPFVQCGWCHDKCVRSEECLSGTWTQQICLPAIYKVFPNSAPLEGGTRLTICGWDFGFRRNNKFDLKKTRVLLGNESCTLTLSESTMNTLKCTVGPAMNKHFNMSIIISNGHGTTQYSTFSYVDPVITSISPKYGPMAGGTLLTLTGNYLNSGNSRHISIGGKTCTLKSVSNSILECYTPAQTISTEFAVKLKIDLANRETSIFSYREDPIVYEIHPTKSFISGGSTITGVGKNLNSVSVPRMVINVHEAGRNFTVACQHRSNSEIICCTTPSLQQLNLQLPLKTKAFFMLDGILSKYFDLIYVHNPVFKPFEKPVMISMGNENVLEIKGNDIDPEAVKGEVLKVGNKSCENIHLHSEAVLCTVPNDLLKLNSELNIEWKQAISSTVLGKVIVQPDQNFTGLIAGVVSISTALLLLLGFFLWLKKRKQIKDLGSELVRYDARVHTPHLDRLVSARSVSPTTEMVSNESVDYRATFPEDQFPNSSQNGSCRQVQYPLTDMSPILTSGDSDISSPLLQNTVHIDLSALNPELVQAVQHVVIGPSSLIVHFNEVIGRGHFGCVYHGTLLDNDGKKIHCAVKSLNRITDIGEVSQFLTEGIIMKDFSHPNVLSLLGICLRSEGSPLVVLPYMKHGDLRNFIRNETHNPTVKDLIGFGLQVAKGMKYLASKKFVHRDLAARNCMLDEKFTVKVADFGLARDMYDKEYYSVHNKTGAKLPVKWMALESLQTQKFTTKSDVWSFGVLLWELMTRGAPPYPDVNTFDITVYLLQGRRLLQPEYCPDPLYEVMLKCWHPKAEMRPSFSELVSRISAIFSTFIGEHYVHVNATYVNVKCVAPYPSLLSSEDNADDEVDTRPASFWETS
- PROCEDURE_SUMMARY: Inhibition of Met (unknown origin) at 0.5 uM relative to control
EXPERIMENTAL_READOUT: inhibition (%)

ENTRY_SMILES: O=C(Nc1ccc(Oc2cc(NCCN3CCOCC3)ncn2)c(F)c1)c1cccn(-c2ccc(F)cc2)c1=O
MEASURED: 98
//
ENTRY_SMILES: Nc1cc(Oc2ccc(NC(=O)c3cccn(-c4ccc(F)cc4F)c3=O)cc2F)ncn1
MEASURED: 91
//
ENTRY_SMILES: Cc1cc(F)ccc1-n1cccc(C(=O)Nc2ccc(Oc3cc(N)ncn3)c(F)c2)c1=O
MEASURED: 99
//
ENTRY_SMILES: O=C(Nc1ccc(Oc2ncnc3[nH]cnc23)c(F)c1)c1cccn(-c2ccc(F)cc2)c1=O
MEASURED: 93
//
ENTRY_SMILES: Nc1nccc(Oc2ccc(NC(=O)c3cccn(-c4ccc(F)cc4)c3=O)cc2F)n1
MEASURED: 99
//
ENTRY_SMILES: Nc1cc(Oc2ccc(NC(=O)c3cccn(-c4ccc(F)cc4)c3=O)cc2)ncn1
MEASURED: 95
//
ENTRY_SMILES: Nc1cc(Oc2ccc(NC(=O)c3cccn(-c4ccc(F)cc4)c3=O)cc2F)ncn1
MEASURED: 98

====

Property: inhibition; scope: individual compounds
- TARGET_SYSTEM: Tyrosine-protein kinase receptor UFO (Homo sapiens)
- PROCEDURE_SUMMARY: Inhibition of Axl (unknown origin) at 0.5 uM relative to control

ENTRY_SMILES: Nc1cc(Oc2ccc(NC(=O)c3cccn(-c4ccc(F)cc4)c3=O)cc2)ncn1
inhibition: 85%
//
ENTRY_SMILES: Cc1cc(F)ccc1-n1cccc(C(=O)Nc2ccc(Oc3cc(N)ncn3)c(F)c2)c1=O
inhibition: 93%
//
ENTRY_SMILES: CCOc1ccn(-c2ccc(F)cc2)c(=O)c1C(=O)Nc1ccc(Oc2ccnc(N)c2Cl)c(F)c1
inhibition: 99%
//
ENTRY_SMILES: O=C(Nc1ccc(Oc2cc(NCCN3CCOCC3)ncn2)c(F)c1)c1cccn(-c2ccc(F)cc2)c1=O
inhibition: 95%
//
ENTRY_SMILES: Nc1nccc(Oc2ccc(NC(=O)c3cccn(-c4ccc(F)cc4)c3=O)cc2F)n1
inhibition: 96%
//
ENTRY_SMILES: Nc1cc(Oc2ccc(NC(=O)c3cccn(-c4ccc(F)cc4F)c3=O)cc2F)ncn1
inhibition: 74%
//
ENTRY_SMILES: Nc1cc(Oc2ccc(NC(=O)c3cccn(-c4ccc(F)cc4)c3=O)cc2F)ncn1
inhibition: 97%
//
ENTRY_SMILES: O=C(Nc1ccc(Oc2ncnc3[nH]cnc23)c(F)c1)c1cccn(-c2ccc(F)cc2)c1=O
inhibition: 98%

====

- TARGET_SYSTEM: Tyrosine-protein kinase receptor TYRO3 (Homo sapiens) (UniProt Q06418)
- Sequence (whole entry): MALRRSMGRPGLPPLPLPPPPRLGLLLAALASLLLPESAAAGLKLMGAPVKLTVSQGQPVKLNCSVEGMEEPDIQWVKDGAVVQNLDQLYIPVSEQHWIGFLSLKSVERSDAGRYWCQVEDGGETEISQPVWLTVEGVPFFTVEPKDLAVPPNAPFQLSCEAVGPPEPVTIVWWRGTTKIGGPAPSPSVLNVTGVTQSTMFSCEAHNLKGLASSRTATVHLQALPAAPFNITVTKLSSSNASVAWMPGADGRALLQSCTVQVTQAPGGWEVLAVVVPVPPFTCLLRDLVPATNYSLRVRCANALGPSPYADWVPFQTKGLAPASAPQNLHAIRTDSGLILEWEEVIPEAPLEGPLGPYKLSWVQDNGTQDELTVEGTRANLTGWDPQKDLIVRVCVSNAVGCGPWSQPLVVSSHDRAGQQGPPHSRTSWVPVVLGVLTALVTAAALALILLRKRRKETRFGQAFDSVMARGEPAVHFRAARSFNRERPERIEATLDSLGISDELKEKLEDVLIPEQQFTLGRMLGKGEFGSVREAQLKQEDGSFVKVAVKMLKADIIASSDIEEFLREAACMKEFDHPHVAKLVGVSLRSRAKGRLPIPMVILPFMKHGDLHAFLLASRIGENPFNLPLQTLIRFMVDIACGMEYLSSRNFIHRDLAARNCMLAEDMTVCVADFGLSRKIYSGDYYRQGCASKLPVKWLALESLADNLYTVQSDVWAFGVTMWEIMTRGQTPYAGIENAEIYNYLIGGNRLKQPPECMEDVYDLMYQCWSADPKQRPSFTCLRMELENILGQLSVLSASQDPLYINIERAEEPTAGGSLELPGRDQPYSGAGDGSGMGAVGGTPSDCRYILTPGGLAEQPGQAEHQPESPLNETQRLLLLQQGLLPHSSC
- PROCEDURE_SUMMARY: Inhibition of recombinant human Tyro3 kinase domain using poly (Glu, Ala, Tyr) as substrate at 1 uM after 1.5 hrs by ELISA relative to control
EXPERIMENTAL_READOUT: inhibition (%)

ENTRY_SMILES: Nc1cc(Oc2ccc(NC(=O)c3cccn(-c4ccc(F)cc4F)c3=O)cc2F)ncn1
MEASURED: 63
--
ENTRY_SMILES: Nc1cc(Oc2ccc(NC(=O)c3cccn(-c4ccc(F)cc4)c3=O)cc2)ncn1
MEASURED: 75
--
ENTRY_SMILES: O=C(Nc1ccc(Oc2ncnc3[nH]cnc23)c(F)c1)c1cccn(-c2ccc(F)cc2)c1=O
MEASURED: 94
--
ENTRY_SMILES: Cc1cc(F)ccc1-n1cccc(C(=O)Nc2ccc(Oc3cc(N)ncn3)c(F)c2)c1=O
MEASURED: 65
--
ENTRY_SMILES: Nc1cc(Oc2ccc(NC(=O)c3cccn(-c4ccc(F)cc4)c3=O)cc2F)ncn1
MEASURED: 94
--
ENTRY_SMILES: Nc1nccc(Oc2ccc(NC(=O)c3cccn(-c4ccc(F)cc4)c3=O)cc2F)n1
MEASURED: 75
--
ENTRY_SMILES: CCOc1ccn(-c2ccc(F)cc2)c(=O)c1C(=O)Nc1ccc(Oc2ccnc(N)c2Cl)c(F)c1
MEASURED: 99
--
ENTRY_SMILES: O=C(Nc1ccc(Oc2cc(NCCN3CCOCC3)ncn2)c(F)c1)c1cccn(-c2ccc(F)cc2)c1=O
MEASURED: 63
